Ref: PubChem BioAssay AID1963959

system: T-47D spheroids with HUVEC/MSC, viability; assay: Anticancer human tumor T-47D cell line growth inhibition [PI3K]; conditions: compound 0.1 µM; active compounds read low;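 note: spheroids exposed to agents for seven days before reading; percent of DMSO vehicle control luminescence so 100% = untreated growth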
measure: viability, T/C

Here are 5 molecules together with their reported answers.
>>> readout_value("CC(C)n1nc(-c2ccc3oc(N)nc3c2)c2c(N)ncnc21")
"35.7% [middle of 4 runs]"
>>> readout_value("Cn1nccc1Nc1nccc(-c2ccn(C(CO)c3ccc(Cl)c(F)c3)c(=O)c2)n1 (stereo unspecified)")
"93.2% [middle of 4 runs]"
>>> readout_value("CNC(=O)c1ccc(N2C(=S)N(c3ccc(C#N)c(C(F)(F)F)c3)C(=O)C2(C)C)cc1F")
"95.9% [middle of 4 runs]"
>>> readout_value("CC(C)NCC(C(=O)N1CCN(c2ncnc3c2C(C)CC3O)CC1)c1ccc(Cl)cc1 (stereo unspecified)")
"83.5% [middle of 4 runs]"
>>> readout_value("C#Cc1c(F)ccc2cc(O)cc(-c3ncc4c(N5CC6CCC(C5)N6)nc(OCC56CCCN5CC(F)C6)nc4c3F)c12 (stereo unspecified)")
"99.3% [middle of 4 runs]"

Consider the record given below.
Input line: Find the recorded viability, T/C belonging to CC(Cn1ccc(-c2ccc(C#N)c(Cl)c2)n1)NC(=O)c1cc(C(C)O)[nH]n1 (stereo unspecified) and report it.
Output line: 107% [middle of 4 runs]

----------
tested on: T-47D spheroids with HUVEC/MSC, viability; assay: Anticancer human tumor T-47D cell line growth inhibition [PI3K]; conditions: second compound 0.00316 µM; first compound 0.01 µM; active compounds read low;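 note: spheroids exposed to agents for seven days before reading; percent of DMSO vehicle control luminescence so 100% = untreated growth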
What viability, T/C was measured for each of the following?
Answers are plain numbers, in %.

// below: answered molecules
>>> readout_value("Cn1ncnc1[C@H]1c2n[nH]c(=O)c3cc(F)cc(c23)N[C@@H]1c1ccc(F)cc1 + CC(Nc1ccc2c(c1)OCCn1cc(N3C(=O)OCC3C(F)F)nc1-2)C(N)=O")
86.9
>>> readout_value("CC(=O)c1c(C)c2cnc(Nc3ccc(N4CCNCC4)cn3)nc2n(C2CCCC2)c1=O + COc1c(OCCCN2CCOCC2)ccc2c3n(c(=NC(=O)c4cnc(N)nc4)nc12)CCN3")
95.6
>>> readout_value("CCN1CCN(Cc2ccc(Nc3ncc(F)c(-c4cc(F)c5nc(C)n(C(C)C)c5c4)n3)nc2)CC1 + CC(Nc1ccc2c(c1)OCCn1cc(N3C(=O)OCC3C(F)F)nc1-2)C(N)=O")
101
>>> readout_value("CC(C)n1nc(-c2ccc3oc(N)nc3c2)c2c(N)ncnc21 + CC(Nc1ccc2c(c1)OCCn1cc(N3C(=O)OCC3C(F)F)nc1-2)C(N)=O")
91.2
>>> readout_value("Cn1ncnc1[C@H]1c2n[nH]c(=O)c3cc(F)cc(c23)N[C@@H]1c1ccc(F)cc1 + COc1c(OCCCN2CCOCC2)ccc2c3n(c(=NC(=O)c4cnc(N)nc4)nc12)CCN3")
104

Give viability, T/C for each of the items listed below.
1. CCN1CCN(Cc2ccc(Nc3ncc(F)c(-c4cc(F)c5nc(C)n(C(C)C)c5c4)n3)nc2)CC1 + COc1c(OCCCN2CCOCC2)ccc2c3n(c(=NC(=O)c4cnc(N)nc4)nc12)CCN3
2. CC(=O)c1c(C)c2cnc(Nc3ccc(N4CCNCC4)cn3)nc2n(C2CCCC2)c1=O + CC(Nc1ccc2c(c1)OCCn1cc(N3C(=O)OCC3C(F)F)nc1-2)C(N)=O
3. CC(C)n1nc(-c2ccc3oc(N)nc3c2)c2c(N)ncnc21 + COc1c(OCCCN2CCOCC2)ccc2c3n(c(=NC(=O)c4cnc(N)nc4)nc12)CCN3

Output line:
1: 77.9; 2: 95.3; 3: 92.5
